Target system: Staphylococcus aureus Topoisomerase IV (Staphylococcus aureus, UniProt P0C1S7+P0C1U9)
Construct: purchased John Innes Enterprises
Sequence (P0C1U9 whole entry): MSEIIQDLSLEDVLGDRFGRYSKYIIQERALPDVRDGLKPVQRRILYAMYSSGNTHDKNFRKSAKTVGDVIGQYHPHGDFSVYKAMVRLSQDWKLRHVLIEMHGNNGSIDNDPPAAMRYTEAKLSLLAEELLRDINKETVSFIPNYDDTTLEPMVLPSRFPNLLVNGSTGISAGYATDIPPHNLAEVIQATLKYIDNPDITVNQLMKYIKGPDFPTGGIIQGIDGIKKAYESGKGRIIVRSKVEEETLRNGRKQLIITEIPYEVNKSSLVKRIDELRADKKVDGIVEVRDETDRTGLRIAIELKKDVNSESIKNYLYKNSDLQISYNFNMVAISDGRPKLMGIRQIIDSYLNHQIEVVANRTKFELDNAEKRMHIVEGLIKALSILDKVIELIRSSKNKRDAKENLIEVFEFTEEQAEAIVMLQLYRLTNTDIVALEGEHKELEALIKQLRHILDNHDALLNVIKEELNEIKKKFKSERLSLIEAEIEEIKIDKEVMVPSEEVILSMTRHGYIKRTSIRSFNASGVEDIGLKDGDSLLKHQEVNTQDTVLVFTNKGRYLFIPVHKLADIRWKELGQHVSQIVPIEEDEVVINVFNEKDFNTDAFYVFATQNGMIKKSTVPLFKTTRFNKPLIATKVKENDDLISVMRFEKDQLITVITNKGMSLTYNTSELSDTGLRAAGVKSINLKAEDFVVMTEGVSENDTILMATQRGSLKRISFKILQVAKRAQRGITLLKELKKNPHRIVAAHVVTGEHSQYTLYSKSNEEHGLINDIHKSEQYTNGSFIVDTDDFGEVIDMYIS
Sequence (P0C1S7 whole entry): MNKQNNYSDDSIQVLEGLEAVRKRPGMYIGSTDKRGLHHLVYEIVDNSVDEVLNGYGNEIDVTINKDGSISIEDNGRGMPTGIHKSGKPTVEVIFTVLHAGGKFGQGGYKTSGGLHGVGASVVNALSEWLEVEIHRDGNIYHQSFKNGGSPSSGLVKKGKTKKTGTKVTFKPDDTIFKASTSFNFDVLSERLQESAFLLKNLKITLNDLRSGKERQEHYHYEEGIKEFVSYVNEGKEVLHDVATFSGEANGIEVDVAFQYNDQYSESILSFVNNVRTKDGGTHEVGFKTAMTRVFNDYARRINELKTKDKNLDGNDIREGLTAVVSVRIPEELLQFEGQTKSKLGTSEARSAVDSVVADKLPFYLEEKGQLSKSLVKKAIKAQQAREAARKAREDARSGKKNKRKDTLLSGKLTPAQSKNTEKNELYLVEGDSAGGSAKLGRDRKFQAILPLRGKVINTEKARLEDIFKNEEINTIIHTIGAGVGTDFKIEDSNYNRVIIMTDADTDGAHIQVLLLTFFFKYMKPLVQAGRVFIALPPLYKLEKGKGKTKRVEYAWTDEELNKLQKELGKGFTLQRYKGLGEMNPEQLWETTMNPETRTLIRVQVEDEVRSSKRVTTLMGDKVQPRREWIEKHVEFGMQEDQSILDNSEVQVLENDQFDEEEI
Method: Topoisomerase IV inhibition (decatenation kit), Exp. Ex. 2-3
Assay type: biochemical
Measurement context: decatenation of kDNA, 37° C., 30 minutes; read-out: IC50 (S. aureus topoisomerase IV inhibitions)
pIC50: −log10 of the molar value.
Listing of recorded pIC50 by entry.
Assay metric: pIC50

Compound	Target system	Measured result
Cc1ccc(CCC(=O)OC[C@H]2O[C@@H](Oc3c(-c4ccc(O)c(O)c4)oc4cc(O)cc(O)c4c3=O)[C@H](OC(=O)CCc3ccc(C)cc3)[C@@H](O)[C@H]2O)cc1 [Compound 14h]	Staphylococcus aureus Topoisomerase IV (Staphylococcus aureus, UniProt P0C1S7+P0C1U9)	5.83
O=C(OC[C@H]1O[C@@H](Oc2c(-c3ccc(O)c(O)c3)oc3cc(O)cc(O)c3c2=O)[C@H](OC(=O)c2ccc(F)cc2)[C@@H](O)[C@H]1O)c1ccc(F)cc1 [Compound 14c]	Staphylococcus aureus Topoisomerase IV (Staphylococcus aureus, UniProt P0C1S7+P0C1U9)	6.28
O=C(CCCCc1ccc(F)cc1)OC[C@H]1O[C@@H](Oc2c(-c3ccc(O)c(O)c3)oc3cc(O)cc(O)c3c2=O)[C@H](OC(=O)CCCCc2ccc(F)cc2)[C@@H](O)[C@H]1O [Compound 14k]	Staphylococcus aureus Topoisomerase IV (Staphylococcus aureus, UniProt P0C1S7+P0C1U9)	5.39

Cited source for all entries: patent US8916526B2
